molecular target: BuChE from equine serum (eqBuChE) (Equus caballus); construct: BuChE obtained from equine serum (eqBuChE); purchased Sigma–Aldrich (Steinheim, Germany); host or cells: horse serum; assay: biochemical; conditions: 10 µM compound concentration; mean ± standard deviation; read-out: % Inhibition +/- SD (eqBuChE)
Sequence (P81908 whole entry): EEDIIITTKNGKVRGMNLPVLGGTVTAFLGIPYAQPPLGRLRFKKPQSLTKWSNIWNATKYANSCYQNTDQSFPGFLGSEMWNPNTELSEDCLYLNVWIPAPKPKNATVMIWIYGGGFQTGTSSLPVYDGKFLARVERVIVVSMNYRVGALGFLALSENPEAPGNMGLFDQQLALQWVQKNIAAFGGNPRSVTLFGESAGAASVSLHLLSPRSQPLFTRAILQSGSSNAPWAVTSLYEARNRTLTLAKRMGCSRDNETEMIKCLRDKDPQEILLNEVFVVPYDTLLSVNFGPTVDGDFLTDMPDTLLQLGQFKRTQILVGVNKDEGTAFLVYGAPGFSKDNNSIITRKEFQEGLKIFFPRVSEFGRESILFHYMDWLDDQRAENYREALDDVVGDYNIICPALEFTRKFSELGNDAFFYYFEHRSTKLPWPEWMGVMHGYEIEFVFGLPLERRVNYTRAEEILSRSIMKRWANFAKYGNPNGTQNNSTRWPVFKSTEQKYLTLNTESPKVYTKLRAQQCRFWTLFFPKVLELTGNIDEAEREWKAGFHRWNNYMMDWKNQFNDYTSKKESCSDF
Binning rule for recorded inhibition at 10 µM: Low = under 60%, Medium = from 60% up to 80%, High = 80% and over

Solved entries:
* CN1CCCCC1CCN1c2cccnc2Sc2cccnc21 (stereo not drawn) [Compound 4] | Low
* CCN(CC)CC#CCN1c2ccc(SC)cc2Sc2cc3ccccc3nc21 [Compound 24] | High
* O=C1c2ccccc2C(=O)N1CCCN1c2cccnc2Sc2cccnc21 [Compound 5] | Low
* c1cnc2c(c1)Sc1ccncc1N2CCN1CCCCC1 [Compound 8] | Medium
* C(#CCN1c2ccncc2Sc2ccncc21)CN1CCCCC1 [Compound 13] | Low

Just checking, what class would you give O=C1c2ccccc2C(=O)N1CCCN1c2ccncc2Sc2ncccc21 [Compound 18] here? Low

Just checking, what class would you give C(#CCN1c2cccnc2Sc2cccnc21)CN1CCOCC1 [Compound 3] here? Medium

Just checking, what class would you give C(#CCN1c2cccnc2Sc2cccnc21)CN1CCCCC1 [Compound 2] here? Low

Just checking, what class would you give C(#CCN1c2ccncc2Sc2ccncc21)CN1CCCC1 [Compound 12] here? Low

Just checking, what class would you give C(#CCN1c2cccnc2Sc2cccnc21)CN1CCCC1 [Compound 1] here? Medium

Just checking, what class would you give CN(C)CCCN1c2cnccc2Sc2cccnc21 [Compound 6] here? High

Just checking, what class would you give C(#CCN1c2cnccc2Sc2cccnc21)CN1CCCC1 [Compound 7] here? High
